System: BT20 Cell
EXPERIMENT SUMMARY: Cancer Cell Lysate Total L-Glutamate Assay
Format: cell-based
APPLIED CONDITIONS: Homo sapiens, BT-20, 2 h, total L-glutamate in cell lysate, BT20 cells, 2 hour incubation with test compound
Please provide measured pIC50 for the entries that follow.
Numbers only, as −log10 of the molar value.

Recorded results for 5 compounds are shown here.
For the compound CC(C)C(=O)Nc1nnc(C2CC3(CC(c4nnc(NC(=O)Cc5ccn(C)n5)s4)C3)C2)s1 (racemic) [Example 136] , what pIC50 is on record?
8.72

Which measured pIC50 value corresponds to O=C(Cc1ccccn1)Nc1nnc(C[C@@H]2CC[C@H](c3nnc(Nc4ccccn4)s3)C2)s1 (single isomer, unassigned) [Example 133] ?
8.77

Given the compound O=C(Cc1ccccn1)Nc1ccc(C[C@@H]2CC[C@H](c3nnc(Nc4ccccn4)s3)C2)nn1 (single isomer, unassigned) [Example 75] , what is its reported pIC50?
8.96

What value of pIC50 has been reported for the following compound? O=C(Cc1ccccn1)Nc1nnc(C[C@@H]2CC[C@H](c3nnc(NC(=O)Cc4ccccn4)s3)C2)s1 (single isomer, unassigned) [Example 2]
9.00

Param item = CC(=O)Nc1nnc(CC2CCC(c3nnc(NC(=O)Cc4ccccc4)s3)C2)s1 (racemic) [Example 43] ; retrieve measured pIC50.
7.03

Would you be so kind as to report pIC50 for each listed record?
1. O=C(Cc1ccccc1)Nc1ccc(C[C@H]2CC[C@@H](c3nnc(NC(=O)Cc4ccccn4)s3)C2)nn1 (single isomer, unassigned) [Example 81]
2. CCC(=O)Nc1ccc(C[C@H]2C[C@@H](c3nnc(NC(=O)Cc4ccccn4)s3)C2)nn1 (single isomer, unassigned) [Example 73]

[8.35, 9.15]

###

System: BT20 Cell
EXPERIMENT SUMMARY: Cancer Cell Lysate Total L-Glutamate Assay
Assay type: cell-based
APPLIED CONDITIONS: Homo sapiens, BT-20, 2 h, total L-glutamate in cell lysate, BT20 cells, 2 hour incubation with test compound
pIC50: −log10 of the molar value.
Mark not met for pIC50 values under 9, and met for everything at or above.

// inclusive: pIC50 at least 9? input: CC(C(=O)Nc1nnc(CC2CCC(c3nnc(NC(=O)C(C)c4cccnc4)s3)C2)s1)c1cccnc1 (racemic)
not met

Check this molecule for pIC50 at or above 9: CC(C)C(=O)Nc1ccc(C[C@@H]2CC[C@H](c3nnc(NC(=O)Cc4ccccn4)s3)C2)nn1 (single isomer, unassigned)
met

Assess whether reported pIC50 for CC(=O)Nc1nnc(CC2CCC(c3nnc(NC(=O)Cc4ccccn4)s3)C2)s1 (racemic) sits at 9 or higher.
not met

Could you tell me if the measured pIC50 of O=C(Cn1cccn1)Nc1nnc(C[C@H]2CC[C@@H](c3nnc(NC(=O)Cc4ccccn4)s3)C2)s1 (racemic) reaches 9 or more?
not met

Does the molecule CC(C)C(=O)Nc1ccc([C@H]2C[C@@H](Cc3nnc(NC(=O)Cc4ccccn4)s3)C2)nn1 (single isomer, unassigned) have recorded pIC50 that is 9 or more?
not met

Could you verify whether the entry CC(=O)Nc1nnc([C@@H]2CC[C@H](Cc3nnc(NC(=O)Cc4cn5ccccc5n4)s3)C2)s1 (racemic) shows pIC50 of no less than 9?
not met

Next:
Does the molecule Cc1ccc(CC(=O)Nc2nnc([C@H]3C[C@@H](Cc4nnc(NC(=O)Cc5ccccn5)s4)C3)s2)nc1 (single isomer, unassigned) have recorded pIC50 that is 9 or more?
met

// inclusive: pIC50 at least 9? input: O=C(Cc1ccccn1)Nc1ccc(C[C@@H]2CC[C@H](c3nnc(NC4CC4)s3)C2)nn1 (single isomer, unassigned)
not met

###

Tested on: BT20 Cell
EXPERIMENT SUMMARY: Cancer Cell Lysate Total L-Glutamate Assay
Assay type: cell-based
APPLIED CONDITIONS: Homo sapiens, BT-20, 2 h, total L-glutamate in cell lysate, BT20 cells, 2 hour incubation with test compound
Experimental: Cancer Cell Lysate Total L-Glutamate Assay Cancer cell lines (BT20, HCT116, SKOV3, HCC70, SUM149, MDA-MB-231, etc.) were plated in 96 well plates and were used for the total L-glutamate assay when the monolayer was ca. 80% confluent. […] Total L-glutamate (L-glutamic acid) in the cell lysis supernatant was detected using glutamate oxidase, horseradish peroxidase and Amplex Red reagent (10-acetyl-3,7-dihydroxy phenoxazine, Invitrogen # A22177). […]
For each record, write down the corresponding pIC50.
One number for each entry, as −log10 of the molar value.

Entry CCC(=O)Nc1ccc(C[C@@H]2CC[C@H](c3nnc(NC(=O)Cc4ccccn4)s3)C2)nn1 (single isomer, unassigned) [Example 79] : reported pIC50 = ?
8.96

Dear reader, for each entry below, please note its pIC50.
1. Cn1ccc(CC(=O)Nc2nnc([C@@H]3CC[C@H](Cc4ccc(NC(=O)Cc5ccccn5)nn4)C3)s2)n1 (single isomer, unassigned) [Example 127]
2. CC(C)C(=O)Nc1nnc([C@H]2CC3(C[C@H](c4nnc(NC(=O)C(C)C)s4)C3)C2)s1 (stereo partly drawn) [Example 95]

1: 9.15; 2: 8.85

###

System: BT20 Cell
EXPERIMENT SUMMARY: Cancer Cell Lysate Total L-Glutamate Assay
Type: cell-based
APPLIED CONDITIONS: Homo sapiens, BT-20, 2 h, total L-glutamate in cell lysate, BT20 cells, 2 hour incubation with test compound
Please respond with reported pIC50 for every item in the list.
Numbers only, as −log10 of the molar value.

Lab note: need pIC50 for Cc1ccc(CC(=O)Nc2nnc(C[C@H]3C[C@@H](c4nnc(NC(=O)Cc5ccc(C)cn5)s4)C3)s2)nc1 (single isomer, unassigned) on BT20 Cell, anyone have it?
9.52

Can you look up pIC50 on BT20 Cell for CC(=O)Nc1nnc(C2CCC(C)(c3nnc(NC(C)=O)s3)C2(C)C)s1 (racemic) ?
6.56

Value wanted: pIC50 (BT20 Cell) of entry CC(=O)Nc1ccc(C[C@@H]2CC[C@H](c3nnc(NC(=O)Cc4ccccn4)s3)C2)nn1 (single isomer, unassigned)
8.60

Param readout = pIC50; param system = BT20 Cell; param query = CC(C)(C)C(=O)Nc1nnc(C[C@H]2CC[C@@H](c3nnc(NC(=O)C(C)(C)C)s3)C2)s1 (single isomer, unassigned) ; response: value
5.52

What value of pIC50 on BT20 Cell does CC(=O)Nc1nnc(C[C@H]2CC[C@@H](c3nnc(NC(C)=O)s3)C2)s1 (single isomer, unassigned) have?
5.47

As a next step, examine the compound that follows.
Return pIC50 measured with BT20 Cell given this compound: O=C(Cc1ccccn1)Nc1ccc(C[C@@H]2CC[C@H](c3nnc(NC(=O)C[C@H]4CCCO4)s3)C2)nn1 (single isomer, unassigned)
8.74
